Each recorded value in this set is attributed to patent US7544704B2.

- Tested target: human GABA A receptor α5β3γ2 (Homo sapiens, UniProt P18507+P31644)
- Construct: expressed in transfected cells; host or cells: HEK293 (transiently transfected), membranes
- Test protocol: [3H]flumazenil competition binding to HEK293 cell membranes expressing human GABA A α5β3γ2
- Stated conditions: displacement of [3H]flumazenil (0.5 nM), human α5β3γ2 transiently transfected in HEK293, means of two determinations; read-out: Ki[nM] hα5
Property label: Ki
Write the numeric value and append its unit.

The recorded Ki for Cc1onc(-c2ccccc2)c1C#Cc1cc(C(=O)NCC2CC2)ccn1 is 39.8 nM

Memo: Cc1ncc(C#Cc2c(-c3ccccc3)noc2C)[nH]1 , reported Ki: 77.2 nM

Continuing:
Ki measured on Cc1c[nH]nc1C#Cc1c(-c2ccccc2)noc1C = 53 nM

Ki recorded for this compound, Cc1onc(-c2ccccc2)c1C#Cc1ccccn1 , is 47.9 nM

Recorded result, CCOC(=O)c1c(C)nc(C#Cc2c(-c3ccccc3)noc2C)n1C , Ki: 7.3 nM

Just so you know, measured Ki for Cc1onc(-c2ccccc2)c1C#Cc1nc(C)n(-c2ccc(F)cc2)c1C came out at 39.1 nM

* * *

- Tested target: human GABA A receptor α5β3γ2 (Homo sapiens, UniProt P18507+P31644)
- Construct: expressed in transfected cells; host or cells: HEK293 (transiently transfected), membranes
- Test protocol: [3H]flumazenil competition binding to HEK293 cell membranes expressing human GABA A α5β3γ2
- Stated conditions: displacement of [3H]flumazenil (0.5 nM), human α5β3γ2 transiently transfected in HEK293, means of two determinations; read-out: Ki[nM] hα5
Property label: Ki (nM)
The answer is to be given in nM; state only the numeric part.

Example results:
The reported Ki of the compound Cc1cnc(C)c(C#Cc2c(-c3ccccc3)noc2C)n1 was 10.4

# Ki of Cc1onc(-c2ccccc2)c1C#Cc1nccn1C = 26

Sure, the documented Ki for COC(=O)c1ccnc(C#Cc2c(-c3ccccc3)noc2C)c1 is 74.9

Briefly, Ki measured for Cc1onc(-c2ccccc2)c1C#Cc1nc2n(c1C)CCCC2 : 15.5

Field Ki (entry Cc1onc(-c2ccccc2)c1C#Cc1ccccc1N ) reads 38.4

***
Ki measured on COC(=O)c1csc(C#Cc2c(-c3ccccc3)noc2C)n1 = 31.9

For reference, reported Ki for Cc1ccc(C#Cc2c(-c3ccccc3)noc2C)nc1 stands at 45.5

Notebook: CCc1ccnc(C#Cc2c(-c3ccccc3)noc2C)c1 , Ki read as 38.9

// recorded Ki for Cc1onc(-c2ccccc2)c1C#Cc1ccc(Cl)cn1 : 81.7

Reported Ki for Cc1onc(-c2ccccc2)c1C#Cc1ncc(C)n1-c1ccccc1 was 23.7
